- TARGET OR SYSTEM: CDK2_CycE1 (Homo sapiens, UniProt P24941)
- Construct: purchased Reaction Biology
- MEASUREMENT DESCRIPTION: Radiometric protein kinase assay (33PanQinase), CDK2_CycE1
- Assay type: biochemical
ASSAY ENDPOINT: IC50 (nM)
Numeric answer only, unit nM assumed.

Q: Checklist item: IC50 tested on CDK2_CycE1 (Homo sapiens, UniProt P24941), entry Cc1n[nH]c2ncc(C(=O)N3CCC[C@H]3c3ccc(Cl)cc3)cc12 , value?
Ans: 2920

* * *

Below, each of the compounds is paired with its reported Hill Slope value.
- TARGET OR SYSTEM: CDK1_CycA2 (Homo sapiens, UniProt P06493)
- Construct: purchased Reaction Biology
- MEASUREMENT DESCRIPTION: Radiometric protein kinase assay (33PanQinase), CDK1_CycA2
- Format: biochemical
- CONDITION SUMMARY: slope of the IC50 fit
Form rule: numeric answer, no unit written next to it.

Study these solved cases before continuing.
Q: Checklist item: Hill Slope tested on CDK1_CycA2 (Homo sapiens, UniProt P06493), entry Cc1c(Br)c(Br)c2c3c1nc(N1CCNCC1)n3CCC2.Cl [SEL120-34A, reference compound] , value?
Ans: -0.95

Q: Checklist item: Hill Slope tested on CDK1_CycA2 (Homo sapiens, UniProt P06493), entry Cc1n[nH]c2ncc(C(=O)N3CCC[C@H]3c3ccc(Cl)cc3)cc12 , value?
Ans: -0.93

Q: Checklist item: Hill Slope tested on CDK1_CycA2 (Homo sapiens, UniProt P06493), entry Cn1cc(-c2ccc(-c3cncc(Cl)c3N3CCC4(CCNC4=O)CC3)cc2)cn1 , value?
Ans: -0.78

Q: Checklist item: Hill Slope tested on CDK1_CycA2 (Homo sapiens, UniProt P06493), entry Cn1ncc2cc(-c3cnc(N)c(Cl)c3N3CCC4(CCNC4=O)CC3)ccc21 , value?
Ans: -0.53

Now, please, on to the next compound.
Q: Checklist item: Hill Slope tested on CDK1_CycA2 (Homo sapiens, UniProt P06493), entry CN1CCN(C(=O)c2ccc3cc(CCNc4ncnc5ccc(C#N)cc45)ccc3c2)CC1 [Senexin B, reference compound] , value?
Ans: -0.17

* * *

- TARGET OR SYSTEM: CDK2_CycA2 (Homo sapiens)
- Construct: purchased Reaction Biology
- MEASUREMENT DESCRIPTION: Radiometric protein kinase assay (33PanQinase), CDK2_CycA2
- Assay type: biochemical
- CONDITION SUMMARY: slope of the IC50 fit
ASSAY ENDPOINT: Hill Slope
Form rule: numeric answer, no unit written next to it.

Study these solved cases before continuing.
Q: Checklist item: Hill Slope tested on CDK2_CycA2 (Homo sapiens), entry Cc1c(Br)c(Br)c2c3c1nc(N1CCNCC1)n3CCC2.Cl [SEL120-34A, reference compound] , value?
Ans: -1.14

Q: Checklist item: Hill Slope tested on CDK2_CycA2 (Homo sapiens), entry Cn1ncc2cc(-c3cnc(N)c(Cl)c3N3CCC4(CCNC4=O)CC3)ccc21 , value?
Ans: -0.89

Q: Checklist item: Hill Slope tested on CDK2_CycA2 (Homo sapiens), entry CN1CCN(C(=O)c2ccc3cc(CCNc4ncnc5ccc(C#N)cc45)ccc3c2)CC1 [Senexin B, reference compound] , value?
Ans: -0.76

Now, please, on to the next compound.
Q: Checklist item: Hill Slope tested on CDK2_CycA2 (Homo sapiens), entry Cn1cc(-c2ccc(-c3cncc(Cl)c3N3CCC4(CCNC4=O)CC3)cc2)cn1 , value?
Ans: -0.46

* * *

- TARGET OR SYSTEM: CDK12_CycK (Homo sapiens, UniProt Q9NYV4)
- Construct: purchased Reaction Biology
- Sequence (Q9NYV4 whole entry): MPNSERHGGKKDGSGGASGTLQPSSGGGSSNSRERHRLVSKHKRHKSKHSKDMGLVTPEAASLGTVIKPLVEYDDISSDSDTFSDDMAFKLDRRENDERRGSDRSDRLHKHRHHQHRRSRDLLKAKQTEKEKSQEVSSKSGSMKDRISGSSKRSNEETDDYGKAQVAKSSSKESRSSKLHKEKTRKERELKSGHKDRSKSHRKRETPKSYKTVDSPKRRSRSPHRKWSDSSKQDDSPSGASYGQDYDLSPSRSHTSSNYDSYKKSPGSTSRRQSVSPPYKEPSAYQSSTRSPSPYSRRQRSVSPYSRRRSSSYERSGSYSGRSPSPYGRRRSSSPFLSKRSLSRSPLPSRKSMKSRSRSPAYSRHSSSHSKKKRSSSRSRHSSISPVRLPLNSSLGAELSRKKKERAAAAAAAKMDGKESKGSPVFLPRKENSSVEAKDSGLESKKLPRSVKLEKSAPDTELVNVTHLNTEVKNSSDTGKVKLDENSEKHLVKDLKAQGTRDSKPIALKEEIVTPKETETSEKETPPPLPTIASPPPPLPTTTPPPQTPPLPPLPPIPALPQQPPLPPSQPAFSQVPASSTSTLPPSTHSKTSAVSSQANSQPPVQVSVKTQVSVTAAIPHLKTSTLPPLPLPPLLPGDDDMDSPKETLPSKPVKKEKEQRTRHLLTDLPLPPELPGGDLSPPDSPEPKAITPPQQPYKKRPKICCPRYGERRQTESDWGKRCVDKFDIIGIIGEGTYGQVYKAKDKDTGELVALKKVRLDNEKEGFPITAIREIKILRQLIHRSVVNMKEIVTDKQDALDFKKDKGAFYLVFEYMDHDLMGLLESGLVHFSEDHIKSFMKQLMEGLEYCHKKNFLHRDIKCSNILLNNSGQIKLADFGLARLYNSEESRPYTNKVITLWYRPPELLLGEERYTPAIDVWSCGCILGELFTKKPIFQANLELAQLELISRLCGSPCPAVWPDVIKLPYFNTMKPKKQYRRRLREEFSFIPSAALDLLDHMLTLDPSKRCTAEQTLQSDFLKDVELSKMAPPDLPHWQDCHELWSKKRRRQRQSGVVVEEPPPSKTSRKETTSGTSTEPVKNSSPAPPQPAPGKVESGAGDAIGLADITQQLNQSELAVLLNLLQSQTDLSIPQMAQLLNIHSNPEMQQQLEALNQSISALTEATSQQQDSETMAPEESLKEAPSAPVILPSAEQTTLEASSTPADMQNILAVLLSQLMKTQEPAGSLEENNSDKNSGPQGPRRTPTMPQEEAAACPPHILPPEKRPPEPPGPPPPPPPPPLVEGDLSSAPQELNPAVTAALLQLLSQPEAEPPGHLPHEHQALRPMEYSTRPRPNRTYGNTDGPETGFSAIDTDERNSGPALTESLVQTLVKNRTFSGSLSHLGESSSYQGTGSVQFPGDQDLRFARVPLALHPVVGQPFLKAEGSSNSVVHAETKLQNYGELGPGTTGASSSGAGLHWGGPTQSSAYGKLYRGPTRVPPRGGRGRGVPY
- Sequence (O75909 whole entry partner): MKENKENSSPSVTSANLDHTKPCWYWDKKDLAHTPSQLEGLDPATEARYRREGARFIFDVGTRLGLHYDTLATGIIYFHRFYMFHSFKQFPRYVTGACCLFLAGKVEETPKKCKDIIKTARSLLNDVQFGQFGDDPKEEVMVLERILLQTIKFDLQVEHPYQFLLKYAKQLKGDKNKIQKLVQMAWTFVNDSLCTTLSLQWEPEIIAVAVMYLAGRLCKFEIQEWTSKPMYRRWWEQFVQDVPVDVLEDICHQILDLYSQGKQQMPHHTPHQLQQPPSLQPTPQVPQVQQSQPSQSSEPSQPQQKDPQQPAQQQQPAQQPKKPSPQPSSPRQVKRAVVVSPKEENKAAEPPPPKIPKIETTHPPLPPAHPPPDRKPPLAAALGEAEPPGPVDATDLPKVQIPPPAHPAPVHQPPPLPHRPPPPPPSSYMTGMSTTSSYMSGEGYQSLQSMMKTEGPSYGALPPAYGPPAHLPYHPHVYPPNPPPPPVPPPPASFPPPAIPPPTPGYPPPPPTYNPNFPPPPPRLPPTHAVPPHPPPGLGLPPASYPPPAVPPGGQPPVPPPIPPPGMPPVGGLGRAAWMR
- MEASUREMENT DESCRIPTION: Radiometric protein kinase assay (33PanQinase), CDK12_CycK
- Format: biochemical
- CONDITION SUMMARY: slope of the IC50 fit
Below, each of the molecules is paired with its reported Hill Slope value.
Form rule: numeric answer, no unit written next to it.

Study these solved cases before continuing.
Q: Checklist item: Hill Slope tested on CDK12_CycK (Homo sapiens, UniProt Q9NYV4), entry Cc1c(Br)c(Br)c2c3c1nc(N1CCNCC1)n3CCC2.Cl [SEL120-34A, reference compound] , value?
Ans: -0.91

Q: Checklist item: Hill Slope tested on CDK12_CycK (Homo sapiens, UniProt Q9NYV4), entry Cn1cc(-c2ccc(-c3cncc(Cl)c3N3CCC4(CCNC4=O)CC3)cc2)cn1 [CCT251545] , value?
Ans: -0.07

Q: Checklist item: Hill Slope tested on CDK12_CycK (Homo sapiens, UniProt Q9NYV4), entry CN1CCN(C(=O)c2ccc3cc(CCNc4ncnc5ccc(C#N)cc45)ccc3c2)CC1 [Senexin B, reference compound] , value?
Ans: -0.18

Further cases:
Q: Checklist item: Hill Slope tested on CDK12_CycK (Homo sapiens, UniProt Q9NYV4), entry Cn1ncc2cc(-c3cnc(N)c(Cl)c3N3CCC4(CCNC4=O)CC3)ccc21 [CCT251921] , value?
Ans: -0.32

Q: Checklist item: Hill Slope tested on CDK12_CycK (Homo sapiens, UniProt Q9NYV4), entry Cc1n[nH]c2ncc(C(=O)N3CCC[C@H]3c3ccc(Cl)cc3)cc12 [MSC2530818] , value?
Ans: -0.59

* * *

Below, each of the molecules is paired with its reported Hill Slope value.
- TARGET OR SYSTEM: CDK4_CycD3 (Homo sapiens, UniProt P11802)
- Construct: purchased Reaction Biology
- Sequence (P11802 whole entry): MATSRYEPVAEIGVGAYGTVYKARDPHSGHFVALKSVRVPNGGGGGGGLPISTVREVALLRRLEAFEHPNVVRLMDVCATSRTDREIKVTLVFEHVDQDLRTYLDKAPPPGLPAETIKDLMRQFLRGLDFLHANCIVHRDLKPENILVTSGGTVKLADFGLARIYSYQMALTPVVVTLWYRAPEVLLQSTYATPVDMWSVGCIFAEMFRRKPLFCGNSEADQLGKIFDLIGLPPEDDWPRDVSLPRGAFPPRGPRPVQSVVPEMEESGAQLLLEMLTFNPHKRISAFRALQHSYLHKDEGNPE
- Sequence (P30281 whole entry partner): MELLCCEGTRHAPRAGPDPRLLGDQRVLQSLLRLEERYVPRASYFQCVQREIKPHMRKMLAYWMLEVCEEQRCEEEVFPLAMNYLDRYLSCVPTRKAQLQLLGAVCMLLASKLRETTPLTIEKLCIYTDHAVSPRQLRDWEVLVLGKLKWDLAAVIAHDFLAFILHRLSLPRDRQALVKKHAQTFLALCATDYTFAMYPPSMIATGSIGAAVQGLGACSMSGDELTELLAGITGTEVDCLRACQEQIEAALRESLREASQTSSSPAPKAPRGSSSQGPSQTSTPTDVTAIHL
- MEASUREMENT DESCRIPTION: Radiometric protein kinase assay (33PanQinase), CDK4_CycD3
- Type: biochemical
- CONDITION SUMMARY: slope of the IC50 fit

Study these solved cases before continuing.
Q: What does the data say about its Hill Slope? Entry: Cn1ncc2cc(-c3cnc(N)c(Cl)c3N3CCC4(CCNC4=O)CC3)ccc21
Ans: -0.37

Q: What does the data say about its Hill Slope? Entry: Cc1c(Br)c(Br)c2c3c1nc(N1CCNCC1)n3CCC2.Cl [SEL120-34A, reference compound]
Ans: -0.78

Q: What does the data say about its Hill Slope? Entry: Cc1n[nH]c2ncc(C(=O)N3CCC[C@H]3c3ccc(Cl)cc3)cc12
Ans: -0.71

Q: What does the data say about its Hill Slope? Entry: CN1CCN(C(=O)c2ccc3cc(CCNc4ncnc5ccc(C#N)cc45)ccc3c2)CC1 [Senexin B, reference compound]
Ans: -0.51

Further cases:
Q: What does the data say about its Hill Slope? Entry: Cn1cc(-c2ccc(-c3cncc(Cl)c3N3CCC4(CCNC4=O)CC3)cc2)cn1
Ans: -0.27

* * *

- TARGET OR SYSTEM: CDK5_p25NCK (Homo sapiens)
- Construct: purchased Reaction Biology
- Sequence (Q00535 whole entry): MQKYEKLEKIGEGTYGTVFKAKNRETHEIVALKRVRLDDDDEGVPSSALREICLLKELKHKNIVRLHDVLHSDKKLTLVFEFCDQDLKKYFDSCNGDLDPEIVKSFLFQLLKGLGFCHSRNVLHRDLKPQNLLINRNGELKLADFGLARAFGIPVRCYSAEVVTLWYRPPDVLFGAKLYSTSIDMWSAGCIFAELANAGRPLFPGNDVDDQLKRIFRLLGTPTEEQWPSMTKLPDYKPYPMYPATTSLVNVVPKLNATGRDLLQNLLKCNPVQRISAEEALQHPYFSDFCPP
- Sequence (Q15078 99-307 partner limits assumed): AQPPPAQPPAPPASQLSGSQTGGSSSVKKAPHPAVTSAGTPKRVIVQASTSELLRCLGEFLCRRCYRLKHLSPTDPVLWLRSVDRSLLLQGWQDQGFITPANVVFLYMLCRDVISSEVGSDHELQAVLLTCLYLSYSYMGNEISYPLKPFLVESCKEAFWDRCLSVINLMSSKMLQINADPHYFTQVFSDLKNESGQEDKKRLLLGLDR
- MEASUREMENT DESCRIPTION: Radiometric protein kinase assay (33PanQinase), CDK5_p25NCK
- Type: biochemical
- CONDITION SUMMARY: slope of the IC50 fit
ASSAY ENDPOINT: Hill Slope

Q: What does the data say about its Hill Slope? Entry: CN1CCN(C(=O)c2ccc3cc(CCNc4ncnc5ccc(C#N)cc45)ccc3c2)CC1 [Senexin B, reference compound]
Ans: -0.24

Further cases:
Q: What does the data say about its Hill Slope? Entry: Cn1ncc2cc(-c3cnc(N)c(Cl)c3N3CCC4(CCNC4=O)CC3)ccc21 [CCT251921]
Ans: -0.17

Q: What does the data say about its Hill Slope? Entry: Cc1c(Br)c(Br)c2c3c1nc(N1CCNCC1)n3CCC2.Cl [SEL120-34A, reference compound]
Ans: -0.75

Q: What does the data say about its Hill Slope? Entry: Cn1cc(-c2ccc(-c3cncc(Cl)c3N3CCC4(CCNC4=O)CC3)cc2)cn1 [CCT251545]
Ans: -0.59

Q: What does the data say about its Hill Slope? Entry: Cc1n[nH]c2ncc(C(=O)N3CCC[C@H]3c3ccc(Cl)cc3)cc12 [MSC2530818]
Ans: -0.57

* * *

- TARGET OR SYSTEM: CDK6_CycD2 (Homo sapiens)
- Construct: purchased Reaction Biology
- Sequence (Q00534 whole entry): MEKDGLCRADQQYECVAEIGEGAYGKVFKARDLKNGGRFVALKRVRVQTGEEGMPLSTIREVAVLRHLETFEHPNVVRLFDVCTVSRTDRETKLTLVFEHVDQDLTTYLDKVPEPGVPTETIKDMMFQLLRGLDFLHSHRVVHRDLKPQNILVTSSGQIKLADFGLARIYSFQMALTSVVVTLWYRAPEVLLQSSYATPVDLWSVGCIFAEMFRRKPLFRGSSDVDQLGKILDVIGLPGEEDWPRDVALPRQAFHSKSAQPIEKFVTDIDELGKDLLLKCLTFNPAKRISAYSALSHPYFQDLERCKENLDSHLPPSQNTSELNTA
- Sequence (P30279 whole entry partner): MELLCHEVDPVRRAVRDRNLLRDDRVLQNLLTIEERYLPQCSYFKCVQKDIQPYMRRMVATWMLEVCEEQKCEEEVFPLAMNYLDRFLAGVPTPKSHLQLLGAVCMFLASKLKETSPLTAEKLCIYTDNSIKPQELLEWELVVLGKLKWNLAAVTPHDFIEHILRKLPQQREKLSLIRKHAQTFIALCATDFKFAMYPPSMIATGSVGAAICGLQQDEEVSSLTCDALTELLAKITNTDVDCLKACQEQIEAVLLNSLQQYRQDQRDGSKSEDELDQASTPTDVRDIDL
- MEASUREMENT DESCRIPTION: Radiometric protein kinase assay (33PanQinase), CDK6_CycD2
- Format: biochemical
- CONDITION SUMMARY: slope of the IC50 fit
ASSAY ENDPOINT: Hill Slope
Form rule: numeric answer, no unit written next to it.

Study these solved cases before continuing.
Q: Checklist item: Hill Slope tested on CDK6_CycD2 (Homo sapiens), entry Cc1n[nH]c2ncc(C(=O)N3CCC[C@H]3c3ccc(Cl)cc3)cc12 [MSC2530818] , value?
Ans: -1.11

Q: Checklist item: Hill Slope tested on CDK6_CycD2 (Homo sapiens), entry CN1CCN(C(=O)c2ccc3cc(CCNc4ncnc5ccc(C#N)cc45)ccc3c2)CC1 [Senexin B, reference compound] , value?
Ans: -0.36

Q: Checklist item: Hill Slope tested on CDK6_CycD2 (Homo sapiens), entry Cn1ncc2cc(-c3cnc(N)c(Cl)c3N3CCC4(CCNC4=O)CC3)ccc21 [CCT251921] , value?
Ans: -0.59

Now, please, on to the next molecule.
Q: Checklist item: Hill Slope tested on CDK6_CycD2 (Homo sapiens), entry Cn1cc(-c2ccc(-c3cncc(Cl)c3N3CCC4(CCNC4=O)CC3)cc2)cn1 [CCT251545] , value?
Ans: -0.64
